B1: NLV2 TCR alpha chain (CDR3α only) (parent)
chain: AGPMKTSYDKVI

variants of: B1; assay: T-Switch: Jurkat TCRβ−/− cells expressing a CDR3 saturation-mutagenesis library, stained with two peptide-HLA-A*02:01 tetramers (original and novel peptide) plus anti-CD3, FACS-sorted into four gates, gDNA sequenced; settings: with both tetramers (double-negative gate, binds neither): HLA-A*02:01 with … and with …, tetramers 1 µg/mL, 30 min on ice, SP, DP and SW gates expanded about 10 days between rounds ('two to three rounds of selection' in the Methods), gate DN: OPPOSITE: higher = more of the variant in the gate that binds neither peptide = LESS binding (or no expression; inferred). Fold enrichment of the CDR3 variant in one FACS gate of a two-tetram, unresolved parent, parent is a CDR3 fragment, scale: fold enrichment, numbering: sequential-on-construct, sequence starts at 1
// label = YES if enrichment is not less than 1, otherwise NO

INSERT INTO results (mut, assigned_label) VALUES
  ('[…] (CDR3 as printed); V11S derived by comparing it with the table''s wild-type CDR3 AGPMKTSYDKVI', 'YES'),
  ('[…] (CDR3 as printed); G2F derived by comparing it with the table''s wild-type CDR3 AGPMKTSYDKVI', 'NO'),
  ('[…] (CDR3 as printed); G2Q derived by comparing it with the table''s wild-type CDR3 AGPMKTSYDKVI', 'NO'),
  ('[…] (CDR3 as printed); T6M derived by comparing it with the table''s wild-type CDR3 AGPMKTSYDKVI', 'YES'),
  ('[…] (CDR3 as printed); M4H derived by comparing it with the table''s wild-type CDR3 AGPMKTSYDKVI', 'NO');

# bool: enrichment of […] (CDR3 as printed); T6R derived by comparing it with the table's wild-type CDR3 AGPMKTSYDKVI >= 1 NO

# bool: enrichment of […] (CDR3 as printed); S7H derived by comparing it with the table's wild-type CDR3 AGPMKTSYDKVI >= 1 NO

# bool: enrichment of […] (CDR3 as printed); M4T derived by comparing it with the table's wild-type CDR3 AGPMKTSYDKVI >= 1 NO

# bool: enrichment of […] (CDR3 as printed); I12M derived by comparing it with the table's wild-type CDR3 AGPMKTSYDKVI >= 1 NO
